system: SR; assay: Growth inhibition of human SR cells assessed as cell growth at 10 uM incubated for 48 hrs by sulforhodamine B assay relative to control; format: functional; conditions: read-out: Activity
Binarize growth at 10 µM at 20%; below is Met, at or above is Not met.

1) O=C(Nc1cccc(-n2cc(-c3ccncc3)c(-c3cc(O)cc(Cl)c3)n2)c1)Nc1ccc(Cl)c(Cl)c1 ... Met
2) COc1cc(Cl)cc(-c2nn(-c3cccc(NC(=O)Nc4cccc(C(F)(F)F)c4)c3)cc2-c2ccncc2)c1 ... Met
3) COc1cc(Cl)cc(-c2nn(-c3cccc(NC(=O)c4ccc(Cl)c(Cl)c4)c3)cc2-c2ccncc2)c1 ... Not met
4) COc1cc(Cl)cc(-c2nn(-c3cccc(NC(=O)c4ccc(N5CCOCC5)c(C(F)(F)F)c4)c3)cc2-c2ccncc2)c1 ... Met
5) O=C(Nc1cccc(-n2cc(-c3ccncc3)c(-c3cc(O)cc(Cl)c3)n2)c1)c1cc(C(F)(F)F)cc(C(F)(F)F)c1 ... Met

Now for another entry.
Does the reported growth at 10 µM of COc1cc(Cl)cc(-c2nn(-c3cccc(NC(=O)c4cccc(C(F)(F)F)c4)c3)cc2-c2ccncc2)c1 stay below 20%?
Not met
